experiment: in vitro; settings: human, plasma, pH 7.4
property-name: half-life at 2.4 µM (min)
Reply numerically in min, unit not repeated.

Problem: Given the compound CC(=O)Oc1ccccc1C(=O)O[C@H]1CO[C@H]2[C@@H]1OC[C@H]2OC(=O)c1ccccc1O [Compound 2, Isosorbide-2-aspirinate-5-salicylate] , what is its reported half-life at 2.4 µM?
Result: 2

====

tested on: platelet aggregation in human whole blood; test: Whole blood aggregation studies (impedance method); format: cell-based; details: Homo sapiens, Platelet; arachidonic acid; impedance method; read-out: IC50, platelet aggregation towards arachidonic acid in human whole blood
property-name: IC50 (µM)
Write the value in µM as a bare number.

Problem: I am curious: what IC50 value has been reported for CC(=O)Oc1ccccc1C(=O)O [aspirin] ?
Result: 25

Problem: Entry under review: CC(=O)Oc1ccccc1C(=O)O[C@H]1CO[C@H]2[C@@H]1OC[C@H]2OC(=O)c1ccccc1O [Compound 2, Isosorbide-2-aspirinate-5-salicylate] . Reported IC50?
Result: 17

Where do these numbers come from? They come from patent US8486974B2.
